From: patent EP2125859B1

target: recombinant human 17β-HSD1 (Homo sapiens); construct: made in house; host or cells: Sf9 insect cells (baculovirus, Bac to Bac Expression System); experiment: Inhibition of recombinant human 17β-HSD1 (HPLC assay, conversion of 3H-estrone to estradiol); type: biochemical; conditions: 0.5 h; 1 µM inhibitor; 30 nM 3H-estrone, 1 mM NADPH, 30 min at RT; read-out: inhibition of rec. 17β-HSD1
Sequence (P14061 whole entry): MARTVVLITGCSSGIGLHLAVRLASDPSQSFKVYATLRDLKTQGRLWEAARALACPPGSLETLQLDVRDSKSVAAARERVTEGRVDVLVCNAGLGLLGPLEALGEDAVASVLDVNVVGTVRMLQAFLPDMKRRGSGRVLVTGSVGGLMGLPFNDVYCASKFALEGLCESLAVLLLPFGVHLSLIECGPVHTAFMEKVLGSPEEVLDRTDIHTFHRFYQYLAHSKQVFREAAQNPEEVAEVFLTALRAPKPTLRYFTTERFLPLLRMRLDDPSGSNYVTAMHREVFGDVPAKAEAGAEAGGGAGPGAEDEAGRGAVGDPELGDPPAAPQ
Task for the reader: assign each of the following compounds its reported inhibition at 1 µM.
Write the number in % without appending the unit.

Reported inhibition at 1 µM for recombinant human 17β-HSD1 (Homo sapiens), given C[C@]12CC[C@@H]3c4ccc(O)cc4CC[C@H]3[C@@H]1[C@H](CCn1cc(-c3ccccc3F)nn1)CC2=O ?
94

Reported inhibition at 1 µM for recombinant human 17β-HSD1 (Homo sapiens), given C[C@]12CC[C@@H]3c4ccc(O)cc4CC[C@H]3[C@@H]1[C@H](CCCn1cc(-c3cc(F)cc(F)c3)nn1)CC2=O ?
88

Reported inhibition at 1 µM for recombinant human 17β-HSD1 (Homo sapiens), given C[C@]12CC[C@@H]3c4ccc(O)cc4CC[C@H]3[C@@H]1[C@H](CCn1cc(-c3ccc(OC(F)(F)F)cc3)nn1)CC2=O ?
92
